assay_info: Total drug level in mdr1a-deficient mouse brain at 3 mg/kg/day administered through continuous minipump treatment for 3 days by UPLC-MS analysis
Assay type: ADME, organism-based
condition_info: other: continuous minipump, read-out: Drug uptake
property_measured: concentration at 72 h (ng/g)

{"compound": "O=C1CCc2ccc(OCCCCN3CCN(c4cccc(Cl)c4Cl)CC3)cc2N1 [ARIPIPRAZOLE]", "property_measured": "concentration at 72 h", "observed_measurement": 41}

====

assay_info: Percentage unbound in Sprague-Dawley rat brain at 1 uM after 5 hrs by equilibrium dialysis method
Type: ADME, tissue-based
Catalogue of fraction unbound at 5 h, 1 µM values
property_measured: fraction unbound at 5 h, 1 µM

{"compound": "Cc1nc2n(c(=O)c1CCN1CCC(c3noc4cc(F)ccc34)CC1)CCCC2", "observed_measurement": 0.09}
{"compound": "COc1ccc(C(CN(C)C)C2(O)CCCCC2)cc1.Cl (stereo unspecified) [VENLAFAXINE HYDROCHLORIDE]", "observed_measurement": 0.092}
{"compound": "CNCC(c1ccc(OC)cc1)C1(O)CCCCC1 (stereo unspecified)", "observed_measurement": 0.08}
{"compound": "O=C1CCc2ccc(OCCCCN3CCN(c4cccc(Cl)c4Cl)CC3)cc2N1", "observed_measurement": 0.001}
{"compound": "Br.CN(C)CCCC1(c2ccc(F)cc2)OCc2cc(C#N)ccc21 (stereo unspecified) [CITALOPRAM HYDROBROMIDE]", "observed_measurement": 0.031}
{"compound": "CN(C)CC(c1ccc(O)cc1)C1(O)CCCCC1 (stereo unspecified)", "observed_measurement": 0.35}

====

assay_info: Total drug level in wild type Crl:CF1 mouse brain expressing Abcb1a mutant at 6 mg/kg/day administered through continuous minipump treatment for 3 days by UPLC-MS analysis
Type: ADME, organism-based
condition_info: other: continuous minipump, read-out: Drug uptake
property_measured: concentration at 72 h (ng/g)

{"compound": "Br.CN(C)CCCC1(c2ccc(F)cc2)OCc2cc(C#N)ccc21 (stereo unspecified) [CITALOPRAM HYDROBROMIDE]", "value_units": "ng/g", "observed_measurement": 191}

====

assay_info: Total plasma concentration in mouse at 3 mg/kg/day administered through continuous minipump treatment for 3 days by UPLC-MS analysis
Assay type: ADME, organism-based
condition_info: other: continuous minipump

{"structure_string": "O=C1CCc2ccc(OCCCCN3CCN(c4cccc(Cl)c4Cl)CC3)cc2N1", "concentration at 72 h [ng/mL]": 32}

====

assay_info: Unbound brain to plasma partition coefficient of the compound in wild type Sprague-Dawley rat expressing Abcb1a at 9 mg/kg/day administered through continuous minipump treatment for 3 days
Format: ADME, organism-based
condition_info: other: continuous minipump, read-out: K(p,uu,brain)
property_measured: Kp uu at 72 h

{"molecule": "COc1ccc(C(CN(C)C)C2(O)CCCCC2)cc1.Cl (stereo unspecified) [VENLAFAXINE HYDROCHLORIDE]", "observed_measurement": 0.45}

====

assay_info: Total brain to plasma partition coefficient of the compound in wild type Sprague-Dawley rat expressing Abcb1a at 9 mg/kg/day administered through continuous minipump treatment for 3 days
Assay type: ADME, organism-based
condition_info: brain and plasma, other: continuous minipump
property_measured: Kp at 72 h

{"molecule": "COc1ccc(C(CN(C)C)C2(O)CCCCC2)cc1.Cl (stereo unspecified) [VENLAFAXINE HYDROCHLORIDE]", "observed_measurement": 3.3}

====

assay_info: Total drug level in mdr1a-deficient mouse brain at 6 mg/kg/day administered through continuous minipump treatment for 3 days by UPLC-MS analysis
Format: ADME, organism-based
condition_info: other: continuous minipump, read-out: Drug uptake

{"compound": "Br.CN(C)CCCC1(c2ccc(F)cc2)OCc2cc(C#N)ccc21 (stereo unspecified) [CITALOPRAM HYDROBROMIDE]", "concentration at 72 h (ng/g)": 361}

====

assay_info: Total drug level in wild type Sprague-Dawley rat brain expressing Abcb1a treated with venlafaxine at 9 mg/kg/day administered through continuous minipump treatment for 3 days by UPLC-MS analysis
Type: ADME, organism-based
condition_info: other: continuous minipump, read-out: Drug uptake
property_measured: concentration at 72 h (ng/g)

{"compound": "CN(C)CC(c1ccc(O)cc1)C1(O)CCCCC1 (configuration not stated)", "observed_measurement": 4.4}
{"compound": "CNCC(c1ccc(OC)cc1)C1(O)CCCCC1 (configuration not stated)", "observed_measurement": 9.3}

====

assay_info: Unbound brain to plasma partition coefficient of the compound in mdr1a-deficient mouse at 12 mg/kg/day administered through continuous minipump treatment for 3 days
Assay type: ADME, organism-based
condition_info: other: continuous minipump, read-out: K(p,uu,brain)

{"compound": "COc1ccc(C(CN(C)C)C2(O)CCCCC2)cc1.Cl (stereo unspecified) [VENLAFAXINE HYDROCHLORIDE]", "Kp uu at 72 h": 1.4}

====

assay_info: Total drug level in wild type Crl:CF1 mouse brain expressing Abcb1a mutant at 4 mg/kg/day administered through continuous minipump treatment for 3 days by UPLC-MS analysis
Assay type: ADME, organism-based
condition_info: other: continuous minipump, read-out: Drug uptake

{"structure_string": "Cc1nc2n(c(=O)c1CCN1CCC(c3noc4cc(F)ccc34)CC1)CCCC2", "concentration at 72 h / ng/g": 21}

====

assay_info: Unbound brain to plasma partition coefficient of the compound in wild type Crl:CF1 mouse expressing Abcb1a mutant at 3 mg/kg/day administered through continuous minipump treatment for 3 days
Type: ADME, organism-based
condition_info: other: continuous minipump, read-out: K(p,uu,brain)

{"molecule": "O=C1CCc2ccc(OCCCCN3CCN(c4cccc(Cl)c4Cl)CC3)cc2N1 [ARIPIPRAZOLE]", "Kp uu at 72 h": 0.25}

====

Below: a set of entries, each annotated with reported fraction unbound at 5 h, 1 µM.
assay_info: Percentage unbound in Sprague-Dawley rat plasma at 1 uM after 5 hrs by equilibrium dialysis method
Format: ADME, cell-free

{"molecule": "COc1ccc(C(CN(C)C)C2(O)CCCCC2)cc1.Cl (configuration not stated) [VENLAFAXINE HYDROCHLORIDE]", "fraction unbound at 5 h, 1 µM": 0.64}
{"molecule": "CNCC(c1ccc(OC)cc1)C1(O)CCCCC1 (configuration not stated) [N-DESMETHYLVENLAFAXINE]", "fraction unbound at 5 h, 1 µM": 0.32}
{"molecule": "CN(C)CC(c1ccc(O)cc1)C1(O)CCCCC1 (configuration not stated) [DESVENLAFAXINE]", "fraction unbound at 5 h, 1 µM": 0.89}
{"molecule": "Cc1nc2n(c(=O)c1CCN1CCC(c3noc4cc(F)ccc34)CC1)CCCC2 [RISPERIDONE]", "fraction unbound at 5 h, 1 µM": 0.11}
{"molecule": "Br.CN(C)CCCC1(c2ccc(F)cc2)OCc2cc(C#N)ccc21 (configuration not stated) [CITALOPRAM HYDROBROMIDE]", "fraction unbound at 5 h, 1 µM": 0.5}
{"molecule": "O=C1CCc2ccc(OCCCCN3CCN(c4cccc(Cl)c4Cl)CC3)cc2N1 [ARIPIPRAZOLE]", "fraction unbound at 5 h, 1 µM": 0.001}
{"molecule": "Cc1nc2n(c(=O)c1CCN1CCC(c3noc4cc(F)ccc34)CC1)CC(O)CC2 (configuration not stated)", "fraction unbound at 5 h, 1 µM": 0.2}

====

assay_info: Unbound brain to plasma partition coefficient of the compound in wild type Crl:CF1 mouse expressing Abcb1a mutant at 12 mg/kg/day administered through continuous minipump treatment for 3 days
Assay type: ADME, organism-based
condition_info: other: continuous minipump, read-out: K(p,uu,brain)
property_measured: Kp uu at 72 h

{"compound": "COc1ccc(C(CN(C)C)C2(O)CCCCC2)cc1.Cl (stereo unspecified) [VENLAFAXINE HYDROCHLORIDE]", "observed_measurement": 0.86}

====

assay_info: Total drug level in wild type Sprague-Dawley rat brain expressing Abcb1a at 6 mg/kg/day administered through continuous minipump treatment for 3 days by UPLC-MS analysis
Type: ADME, organism-based
condition_info: other: continuous minipump, read-out: Drug uptake

{"structure_string": "O=C1CCc2ccc(OCCCCN3CCN(c4cccc(Cl)c4Cl)CC3)cc2N1", "concentration at 72 h (ng/g)": 3}

====

assay_info: Total brain to plasma partition coefficient of the compound in mdr1a-deficient Sprague-Dawley rat at 5 mg/kg/day administered through continuous minipump treatment for 3 days
condition_info: brain and plasma, other: continuous minipump

{"structure_string": "Cc1nc2n(c(=O)c1CCN1CCC(c3noc4cc(F)ccc34)CC1)CCCC2", "Kp at 72 h": 1.9}

====

assay_info: Total brain to plasma partition coefficient of the compound in wild type Sprague-Dawley rat expressing Abcb1a at 6 mg/kg/day administered through continuous minipump treatment for 3 days
Assay type: ADME, organism-based
condition_info: brain and plasma, other: continuous minipump
property_measured: Kp at 72 h

{"compound": "O=C1CCc2ccc(OCCCCN3CCN(c4cccc(Cl)c4Cl)CC3)cc2N1 [ARIPIPRAZOLE]", "property_measured": "Kp at 72 h", "observed_measurement": 0.19}

Entry source: ChEMBL document CHEMBL3525946
